Biological target: hKv1.5 (Homo sapiens, UniProt P22460)
Sequence (P22460 whole entry): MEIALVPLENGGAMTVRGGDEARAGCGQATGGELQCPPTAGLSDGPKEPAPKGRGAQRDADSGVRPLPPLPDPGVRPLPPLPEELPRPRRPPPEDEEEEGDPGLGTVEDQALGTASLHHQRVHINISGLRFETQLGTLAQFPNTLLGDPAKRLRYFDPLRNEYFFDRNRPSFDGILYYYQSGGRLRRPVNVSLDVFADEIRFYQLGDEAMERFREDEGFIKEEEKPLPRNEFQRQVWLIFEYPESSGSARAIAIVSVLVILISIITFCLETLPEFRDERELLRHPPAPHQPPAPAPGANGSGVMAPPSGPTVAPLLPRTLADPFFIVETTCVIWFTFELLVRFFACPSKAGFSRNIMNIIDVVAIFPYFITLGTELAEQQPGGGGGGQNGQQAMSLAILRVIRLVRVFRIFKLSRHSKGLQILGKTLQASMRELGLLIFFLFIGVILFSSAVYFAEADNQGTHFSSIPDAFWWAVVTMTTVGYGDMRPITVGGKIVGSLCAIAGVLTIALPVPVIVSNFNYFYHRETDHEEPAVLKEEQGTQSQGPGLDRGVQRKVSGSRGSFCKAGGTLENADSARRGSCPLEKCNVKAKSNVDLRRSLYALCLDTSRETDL
Test: Kv1.5 Autopatch Electrophysiology (whole cell patch-clamp)
Type: cell-based
Settings: compound at 1µM, room temperature (22-24°C), held at -80mV, step to 0mV for 1000ms, total charge measured
Protocol: The external bathing solution contained (in mM): 150 NaCl, 10 KCl, […], 3 MgCl2, 1 CaCl2, 10 HEPES, pH 7.4. Patch pipettes were filled with an electrode solution of composition (in mM): 160 KCl, 0.5 MgCl2, 10 HEPES, 1 EGTA, pH 7.4 with KOH. […] Electrophysiology voltage-step protocols and analysis of data was performed as follows. […] Currents were analysed using Pulsefit software (v8.54, HEKA, Germany), with the total charge measured during the whole of the voltage step. […]
PROPERTY_NAME: inhibition at 1 µM (%)

Solved entries:
c1ccc(CNc2ncnc3scc(-c4ccc5c(c4)OCO5)c23)nc1 [Example 314]: 97.3
FC1(F)Oc2ccc(-c3csc4ncnc(NCc5ccccn5)c34)cc2O1 [Example 326]: 89
c1ccc(CCNc2ncnc3scc(-c4cccs4)c23)cc1 [Example 163]: 70.8
OCC(CO)Nc1nc(NCc2ccccn2)c2c(-c3ccccc3)csc2n1 [Example 210]: 95.6
CCOC(=O)c1cccnc1CNc1ncnc2scc(-c3ccccc3)c12 [Example 160]: 80

A = OCC(O)CNc1nc(NCc2ccccn2)c2c(-c3ccccc3)csc2n1 (centres unmarked) [Example 214]
B = O=[N+]([O-])c1ccc(CNc2ncnc3scc(-c4cccs4)c23)cc1 [Example 93]
// compare measured inhibition at 1 µM between A and B ; output the lower one Use the label to indicate which entry you chose. B
(B: 44%, A: 87%)

====

biological target: hKv1.5 (Homo sapiens); experiment: Kv1.5 Autopatch Electrophysiology (whole cell patch-clamp); type: cell-based; conditions: compound at 1µM, room temperature (22-24°C), held at -80mV, step to 0mV for 1000ms, total charge measured
PROPERTY_NAME: inhibition at 1 µM (%)

c1ccc(-c2csc3nc(NCc4ccco4)nc(NCc4ccco4)c23)cc1: 89.2
Cc1sc2ncnc(NCc3ccccn3)c2c1-c1ccccc1: 88
OCCc1nc(NCc2ccco2)c2c(-c3ccccc3)csc2n1: 98
COc1cccc(-c2csc3ncnc(NCc4ccccn4)c23)c1: 94
c1ccc(-c2csc3ncnc(NCc4ccoc4)c23)cc1: 25.3

1 = COc1cc(CNc2ncnc3scc(-c4cccs4)c23)cc(OC)c1OC
2 = COc1nc(NCc2ccccn2)c2c(-c3ccccc3)csc2n1
3 = CNCc1nc(NCc2ccccn2)c2c(-c3ccccc3)csc2n1
4 = Cc1ccc(CNc2ncnc3scc(-c4ccccc4)c23)o1
// sort entries: inhibition at 1 µM, high to low Write the labels in rank order as requested. 2, 3, 4, 1

====

target: hKv1.5 (Homo sapiens); assay: Kv1.5 Autopatch Electrophysiology (whole cell patch-clamp); format: cell-based; settings: compound at 1µM, room temperature (22-24°C), held at -80mV, step to 0mV for 1000ms, total charge measured, 1 µM
PROPERTY_NAME: % Inhibition at 1µM (%)

Solved entries:
c1csc(CNc2ncnc3scc(-c4cccs4)c23)c1 [Example 115]: 45.9
c1ccc(-c2csc3ncnc(NCC4CCCCC4)c23)cc1: 42.2
c1csc(CNc2ncnc3scc(-c4cccs4)c23)c1 [Example 98]: 21.0

a = c1ccc(-c2csc3ncnc(NCCc4ccccn4)c23)cc1
b = c1ccc(-c2csc3ncnc(SCc4ccco4)c23)cc1
Higher % Inhibition at 1µM: a or b ? Use the label to indicate which entry you chose. b
